These entries and their values trace back to ChEMBL document CHEMBL5346940.

# target: UniProt P11388
# Sequence (P11388 whole entry): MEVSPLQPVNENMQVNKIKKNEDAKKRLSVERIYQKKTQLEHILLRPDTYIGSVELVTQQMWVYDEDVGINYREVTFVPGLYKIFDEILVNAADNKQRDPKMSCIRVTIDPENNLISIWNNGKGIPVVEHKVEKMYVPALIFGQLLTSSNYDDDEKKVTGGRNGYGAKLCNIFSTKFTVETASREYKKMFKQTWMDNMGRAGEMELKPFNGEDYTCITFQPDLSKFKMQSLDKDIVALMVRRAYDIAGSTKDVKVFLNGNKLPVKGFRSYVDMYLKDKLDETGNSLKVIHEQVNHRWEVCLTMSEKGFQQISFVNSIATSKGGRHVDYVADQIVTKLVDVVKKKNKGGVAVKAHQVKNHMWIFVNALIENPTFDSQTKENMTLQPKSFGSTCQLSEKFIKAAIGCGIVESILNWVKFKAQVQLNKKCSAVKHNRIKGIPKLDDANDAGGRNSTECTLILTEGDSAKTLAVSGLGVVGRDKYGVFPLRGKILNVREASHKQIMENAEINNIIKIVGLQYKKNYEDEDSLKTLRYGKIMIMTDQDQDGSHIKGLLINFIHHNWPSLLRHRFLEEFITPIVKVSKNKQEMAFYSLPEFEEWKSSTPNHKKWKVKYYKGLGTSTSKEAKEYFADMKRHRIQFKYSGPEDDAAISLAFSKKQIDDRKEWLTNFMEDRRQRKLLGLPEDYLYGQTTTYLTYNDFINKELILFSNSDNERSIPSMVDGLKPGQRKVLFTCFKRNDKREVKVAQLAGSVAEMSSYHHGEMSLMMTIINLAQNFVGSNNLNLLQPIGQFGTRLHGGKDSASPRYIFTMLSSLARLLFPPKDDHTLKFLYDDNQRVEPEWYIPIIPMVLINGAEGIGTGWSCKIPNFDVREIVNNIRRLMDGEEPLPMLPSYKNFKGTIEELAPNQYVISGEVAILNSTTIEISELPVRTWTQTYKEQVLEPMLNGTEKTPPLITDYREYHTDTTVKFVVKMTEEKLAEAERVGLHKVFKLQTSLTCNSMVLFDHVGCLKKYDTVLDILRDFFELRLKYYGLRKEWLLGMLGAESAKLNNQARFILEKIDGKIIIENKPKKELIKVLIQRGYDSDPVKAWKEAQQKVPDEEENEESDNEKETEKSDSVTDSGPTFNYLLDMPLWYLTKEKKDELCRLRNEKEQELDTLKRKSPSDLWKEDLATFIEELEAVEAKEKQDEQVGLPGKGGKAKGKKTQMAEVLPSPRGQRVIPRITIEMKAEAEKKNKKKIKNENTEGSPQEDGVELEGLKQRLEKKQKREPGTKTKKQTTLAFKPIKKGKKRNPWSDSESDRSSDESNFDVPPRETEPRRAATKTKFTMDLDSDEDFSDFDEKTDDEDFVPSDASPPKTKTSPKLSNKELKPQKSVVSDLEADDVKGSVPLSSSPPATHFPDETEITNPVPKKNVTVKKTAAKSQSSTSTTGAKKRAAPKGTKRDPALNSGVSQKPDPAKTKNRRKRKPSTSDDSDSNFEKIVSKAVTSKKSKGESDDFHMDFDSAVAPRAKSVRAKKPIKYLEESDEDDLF
# test_method_notes: Inhibition of human topoisomerase 2 assessed as relaxation of pBR322 plasmid DNA at 100 uM measured after 30 mins by ethidium bromide staining based UV transilluminator analysis
The source made the active and inactive calls. No cut-off for these calls is given here.
property_name: topoisomerase II inhibition (active/inactive)

INSERT INTO results (smiles_structure, value_observed) VALUES
  ('O=C(CCCCCCSc1nc2c([nH]c3ccccc32)c(=O)[nH]1)NO', 'Active'),
  ('O=C(CCCCSc1nc2c([nH]c3ccccc32)c(=O)[nH]1)NO', 'Active'),
  ('O=C(/C=C/CSc1nc2c([nH]c3ccccc32)c(=O)[nH]1)NO', 'Active'),
  ('O=C(CSc1nc2[nH]ncc2c(=O)[nH]1)NO', 'Active'),
  ('O=C(CCCCCSc1nc2[nH]ncc2c(=O)[nH]1)NO', 'Active'),
  ('O=C(CCCCCSc1nc2c([nH]c3ccccc32)c(=O)[nH]1)NO', 'Active'),
  ('O=C(CCSc1nc2c([nH]c3ccccc32)c(=O)[nH]1)NO', 'Active'),
  ('O=C(CCSc1nc2[nH]ncc2c(=O)[nH]1)NO', 'Active'),
  ('O=C(CCCSc1nc2c([nH]c3ccccc32)c(=O)[nH]1)NO', 'Active'),
  ('C/C(=N\O)c1ccc(NC(=O)CSc2nc3c([nH]c4ccccc43)c(=O)[nH]2)cc1', 'Active'),
  ('CCn1c(SCCCCC(=O)NO)nc2c([nH]c3ccccc32)c1=O', 'Active'),
  ('O=C(/C=C/c1ccc(CSc2nc3[nH]ncc3c(=O)[nH]2)cc1)NO', 'Active'),
  ('O=C(CSc1nc2c([nH]c3ccccc32)c(=O)[nH]1)NO', 'Active'),
  ('O=C(CCCCSc1nc2[nH]ncc2c(=O)[nH]1)NO', 'Active'),
  ('CCn1c(SCC(=O)Nc2ccc(/C(C)=N/O)cc2)nc2c([nH]c3ccccc32)c1=O', 'Active');

----------
# System: MGC-803
# test_method_notes: Antiproliferative activity against human MGC-803 cells assessed as reduction in cell viability measured for 48 hrs by MTT assay
# Assay type: functional, cell-based
# particulars: MGC-803, 48 h
Measured IC50 values are reported for all entries that follow.
property_name: IC50 (µM)

INSERT INTO results (compound, prefix_operator, value_observed) VALUES
  ('O=C(CCCSc1nc2[nH]ncc2c(=O)[nH]1)NO', '=', 27.5),
  ('O=C(CSc1nc2[nH]ncc2c(=O)[nH]1)NO', '=', 31.2),
  ('CCn1c(SCCCCCC(=O)NO)nc2c([nH]c3ccccc32)c1=O', '=', 26),
  ('O=C(CCCCSc1nc2c([nH]c3ccccc32)c(=O)[nH]1)NO', '=', 9.59),
  ('O=C(CCSc1nc2c([nH]c3ccccc32)c(=O)[nH]1)NO', '=', 24.8),
  ('O=C(CCSc1nc2[nH]ncc2c(=O)[nH]1)NO', '=', 19.1),
  ('CCn1c(SCCCC(=O)NO)nc2c([nH]c3ccccc32)c1=O', '=', 17.4),
  ('O=C(CCCCCSc1nc2[nH]ncc2c(=O)[nH]1)NO', '=', 25.8),
  ('CCn1c(SCC(=O)Nc2ccc(/C(C)=N/O)cc2)nc2c([nH]c3ccccc32)c1=O', '=', 48.4),
  ('CCn1c(SC/C=C/C(=O)NO)nc2c([nH]c3ccccc32)c1=O', '=', 25.5),
  ('O=C(CSc1nc2c([nH]c3ccccc32)c(=O)[nH]1)NO', '>', 80),
  ('O=C(CCCSc1nc2c([nH]c3ccccc32)c(=O)[nH]1)NO', '=', 34.1),
  ('CCn1c(SCCCCCCCC(=O)NO)nc2c([nH]c3ccccc32)c1=O', '=', 36.4),
  ('C/C(=N\O)c1ccc(NC(=O)CSc2nc3[nH]ncc3c(=O)[nH]2)cc1', '=', 42.5),
  ('CCn1c(SCCCCC(=O)NO)nc2c([nH]c3ccccc32)c1=O', '=', 12.3),
  ('O=C(/C=C/CSc1nc2c([nH]c3ccccc32)c(=O)[nH]1)NO', '=', 20.4),
  ('O=C(/C=C/c1ccc(CSc2nc3c([nH]c4ccccc43)c(=O)[nH]2)cc1)NO', '=', 21.8),
  ('O=C(CCCCCCC(=O)Nc1ccccc1)NO', '=', 1.58),
  ('CCn1c(SCCCCCCC(=O)NO)nc2c([nH]c3ccccc32)c1=O', '=', 46.4),
  ('O=C(/C=C/c1ccc(CSc2nc3[nH]ncc3c(=O)[nH]2)cc1)NO', '=', 15.8),
  ('C/C(=N/O)c1ccc(NC(=O)CCCSc2nc3[nH]ncc3c(=O)[nH]2)cc1', '=', 36.6),
  ('CCn1c(SCC(=O)NO)nc2c([nH]c3ccccc32)c1=O', '=', 31.3),
  ('O=C(CCCCCSc1nc2c([nH]c3ccccc32)c(=O)[nH]1)NO', '=', 27.6),
  ('O=C(CCCCSc1nc2[nH]ncc2c(=O)[nH]1)NO', '=', 40),
  ('CC[C@@]1(O)C(=O)OCc2c1cc1n(c2=O)Cc2cc3ccccc3nc2-1', '=', 17.8),
  ('CCn1c(SCCC(=O)NO)nc2c([nH]c3ccccc32)c1=O', '=', 43.5),
  ('O=C(CCCCCCSc1nc2c([nH]c3ccccc32)c(=O)[nH]1)NO', '=', 19.9),
  ('C/C(=N\O)c1ccc(NC(=O)CSc2nc3c([nH]c4ccccc43)c(=O)[nH]2)cc1', '=', 33.3),
  ('COc1cc([C@@H]2c3cc4c(cc3[C@@H](O[C@@H]3O[C@@H]5CO[C@@H](C)O[C@H]5[C@H](O)[C@H]3O)[C@H]3COC(=O)[C@H]23)OCO4)cc(OC)c1O [ETOPOSIDE]', '=', 10.8);
